These data points were gathered from patent US8541573B2.

molecular target: B1R of rats (Rattus norvegicus, UniProt P97583); construct: expressed in transfected cells; host or cells: CHO K1 cells; test: Functional investigation on the bradykinin 1 receptor (B1R), cell-based fluorescent calcium-mobilization assay (FLIPR/Novostar), rat; settings: 10 μM test substance; CHO K1 cells stably transfected with rat B1R gene; agonist Des-Arg9-bradykinin at EC80; % inhibition compared with maximum achievable inhibition; read-out: B1R antagonism, rat [10 μM] % inhibition
Sequence (P97583 whole entry): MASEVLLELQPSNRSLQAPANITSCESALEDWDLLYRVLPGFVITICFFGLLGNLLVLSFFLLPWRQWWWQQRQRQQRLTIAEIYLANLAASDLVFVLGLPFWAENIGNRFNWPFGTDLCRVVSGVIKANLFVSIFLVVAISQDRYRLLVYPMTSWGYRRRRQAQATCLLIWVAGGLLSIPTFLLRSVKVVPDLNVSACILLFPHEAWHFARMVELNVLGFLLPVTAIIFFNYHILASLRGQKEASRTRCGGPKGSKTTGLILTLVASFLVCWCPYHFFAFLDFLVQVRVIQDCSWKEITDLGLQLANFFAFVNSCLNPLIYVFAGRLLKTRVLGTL
ENDPOINT_NAME: inhibition at 10 µM (%)
Write the answer as a number in %, unit excluded.

CN1CCN(C2(CNC(=O)c3ccncc3)CCN(C(=O)CC(NS(=O)(=O)c3ccc4ccccc4c3)c3ccccc3)CC2)CC1 (stereo not drawn) = 71
CC(=O)NCC1(N2CCN(c3ccncc3)CC2)CCN(C(=O)CCC2CCCCN2S(=O)(=O)c2cc(C)c(Cl)cc2C)CC1 (stereo not drawn) = 75
COc1cc(C)c(S(=O)(=O)N(CCOCC(=O)N2CCC(CNC(C)=O)(N3CCN(c4ccncc4)CC3)CC2)C2CC2)c(C)c1 = 101
COc1cc(C)c(S(=O)(=O)N2CCCCC2COCC(=O)N2CCC(CNC(C)=O)(N3CCN(c4ccncc4)CC3)CC2)c(C)c1 (stereo not drawn) = 101
CN1CCN(C2(CNC(=O)Cc3ccccc3)CCN(C(=O)CC(NS(=O)(=O)c3ccc4ccccc4c3)c3ccccc3)CC2)CC1 (stereo not drawn) = 29

// query inhibition at 10 µM value for entry Cc1cc(S(=O)(=O)N2CCCCC2CCC(=O)N2CCC(CNC(=O)Cc3ccccc3)(N3CCN(C)CC3)CC2)c(C)cc1Cl (stereo not drawn) 39

---

Reported inhibition at 10 µM values are given for each entry in this list.
biological target: human B1R (Homo sapiens); construct: expressed in transfected cells; host or cells: CHO K1 cells; assay: Functional investigation on the bradykinin 1 receptor (B1R), cell-based fluorescent calcium-mobilization assay (FLIPR/Novostar), human; details: 10 μM test substance; CHO K1 cells stably transfected with human B1R gene; agonist Lys-Des-Arg9-bradykinin at EC80; % inhibition compared with maximum achievable inhibition; read-out: B1R antagonism, human [10 μM] % inhibition
Sequence (P46663 whole entry): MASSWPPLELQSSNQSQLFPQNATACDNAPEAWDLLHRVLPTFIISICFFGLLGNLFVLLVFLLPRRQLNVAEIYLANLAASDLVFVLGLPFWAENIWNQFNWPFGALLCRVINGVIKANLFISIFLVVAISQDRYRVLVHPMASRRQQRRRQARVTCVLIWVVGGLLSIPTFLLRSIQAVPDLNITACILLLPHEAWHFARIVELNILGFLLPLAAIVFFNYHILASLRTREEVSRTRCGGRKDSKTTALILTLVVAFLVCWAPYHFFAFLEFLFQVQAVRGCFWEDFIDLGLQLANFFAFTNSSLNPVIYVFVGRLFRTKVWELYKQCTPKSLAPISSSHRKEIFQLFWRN
Write the answer as a number in %, unit excluded.

CN1CCN(C2(CNC(=O)c3ccccc3)CCN(C(=O)COCC3CCc4ccccc4N3S(=O)(=O)c3ccc(Cl)c(Cl)c3)CC2)CC1 (stereo not shown) = 99
COc1cc(C)c(S(=O)(=O)N(C)CCOCC(=O)N2CCC(CNC(=O)Cc3ccccc3)(N3CCN(C)CC3)CC2)c(C)c1 = 103
Cc1cccc(Cl)c1S(=O)(=O)N(CCOCC(=O)N1CCC(CNC(=O)c2ccncc2)(N2CCN(C3CC3)CC2)CC1)C1CC1 = 100
COc1cc(C)c(S(=O)(=O)N(C)CCOCC(=O)N2CCC(CNC(=O)c3ccccc3)(N3CCN(C)CC3)CC2)c(C)c1 = 103
CC(=O)NCC1(N2CCN(C)CC2)CCN(C(=O)CCC2CCCCN2S(=O)(=O)c2cc(C)c(Cl)cc2C)CC1 (stereo not shown) = 81

Missing value: inhibition at 10 µM, human B1R (Homo sapiens), entry COc1cc(C)c(S(=O)(=O)N(C)CCOCC(=O)N2CCC(CNC(C)=O)(N3CCN(c4ccncc4)CC3)CC2)c(C)c1 . Fill in? 100

---

biological target: B1R of rats (Rattus norvegicus); construct: expressed in transfected cells; host or cells: CHO K1 cells; assay: Functional investigation on the bradykinin 1 receptor (B1R), cell-based fluorescent calcium-mobilization assay (FLIPR/Novostar), rat; details: 10 μM test substance; CHO K1 cells stably transfected with rat B1R gene; agonist Des-Arg9-bradykinin at EC80; % inhibition compared with maximum achievable inhibition; read-out: B1R antagonism, rat [10 μM] % inhibition
ENDPOINT_NAME: inhibition at 10 µM

Reference set, count: 5
COc1cc(C)c(S(=O)(=O)N(CCOCC(=O)N2CCC(CNC(=O)c3ccncc3)(N3CCN(C4CC4)CC3)CC2)C2CC2)c(C)c1 = 102%
COc1cc(C)c(S(=O)(=O)N(C)CCOCC(=O)N2CCC(CNC(C)=O)(N3CCN(C)CC3)CC2)c(C)c1 = 101%
COc1cc(C)c(S(=O)(=O)N2CCCCC2COCC(=O)N2CCC(CNC(=O)c3ccccn3)(N3CCN(C)CC3)CC2)c(C)c1 (centres unmarked) = 101%
CN1CCN(C2(CNC(=O)c3cccnc3)CCN(C(=O)CC3CCCCN3S(=O)(=O)c3cccc(C(F)(F)F)c3)CC2)CC1 (centres unmarked) = 94%
CN1CCN(C2(CNC(=O)c3cccnc3)CCN(C(=O)COCC3CCc4ccccc4N3S(=O)(=O)c3ccc(Cl)c(Cl)c3)CC2)CC1 (centres unmarked) = 103%

API: value(readout= inhibition at 10 µM, system= B1R of rats (Rattus norvegicus), query= COc1cc(C)c(S(=O)(=O)N(C)CCOCC(=O)N2CCC(CNC(=O)c3ccncc3)(N3CCN(C)CC3)CC2)c(C)c1C ) 103%

Give inhibition at 10 µM (B1R of rats (Rattus norvegicus)) of the following compound: COc1cc(C)c(S(=O)(=O)N(C)CCOCC(=O)N2CCC(CNC(=O)c3ccncc3)(N3CCN(C)CC3)CC2)c(C)c1 101%

Report inhibition at 10 µM for COc1cc(C)c(S(=O)(=O)N(C)CCOCC(=O)N2CCC(CNC(=O)c3ccccn3)(N3CCN(C)CC3)CC2)c(C)c1 tested on B1R of rats (Rattus norvegicus). 101%

Checklist item: inhibition at 10 µM tested on B1R of rats (Rattus norvegicus), entry CC(=O)NCC1(N2CCN(C)CC2)CCN(C(=O)CCC2CCCCN2S(=O)(=O)c2cc(C)c(Cl)cc2C)CC1 (centres unmarked) , value? 74%

Can you look up inhibition at 10 µM on B1R of rats (Rattus norvegicus) for Cc1cccc(Cl)c1S(=O)(=O)N(CCOCC(=O)N1CCC(CNC(=O)c2ccncc2)(N2CCN(C3CC3)CC2)CC1)C1CC1 ? 103%

// lookup inhibition at 10 µM | system=B1R of rats (Rattus norvegicus) | key= Cc1cc(S(=O)(=O)N2CCCCC2CCC(=O)N2CCC(CNC(=O)c3cccnc3)(N3CCN(C)CC3)CC2)c(C)cc1Cl (centres unmarked) 100%

Request - read-out inhibition at 10 µM | tested on B1R of rats (Rattus norvegicus) | compound CN1CCN(C2(CNC(=O)c3ccccn3)CCN(C(=O)CC3CCCCN3S(=O)(=O)c3cccc(C(F)(F)F)c3)CC2)CC1 (centres unmarked) 17%

Please provide the recorded inhibition at 10 µM for CC(=O)NCC1(N2CCN(C)CC2)CCN(C(=O)CC(NS(=O)(=O)c2ccc3ccccc3c2)c2ccccc2)CC1 (centres unmarked) , tested on B1R of rats (Rattus norvegicus). 102%

Which measured inhibition at 10 µM belongs to CC(=O)NCC1(N2CCN(c3ccncc3)CC2)CCN(C(=O)CC2CCCCN2S(=O)(=O)c2cccc(C(F)(F)F)c2)CC1 (centres unmarked) , tested on B1R of rats (Rattus norvegicus)? 101%

Please tell me: inhibition at 10 µM of COc1cc(C)c(S(=O)(=O)N2CCCCC2COCC(=O)N2CCC(CNC(=O)c3cccnc3)(N3CCN(C)CC3)CC2)c(C)c1 (centres unmarked) , system B1R of rats (Rattus norvegicus)? 102%

Any idea what inhibition at 10 µM came out for CC(=O)NCC1(N2CCN(C)CC2)CCN(C(=O)COCC2CCc3ccccc3N2S(=O)(=O)c2ccc(Cl)c(Cl)c2)CC1 (centres unmarked) on B1R of rats (Rattus norvegicus)? 105%

What measured inhibition at 10 µM is associated with CN1CCN(C2(CNC(=O)c3ccccn3)CCN(C(=O)COCC3CCc4ccccc4N3S(=O)(=O)c3ccc(Cl)c(Cl)c3)CC2)CC1 (centres unmarked) on B1R of rats (Rattus norvegicus)? 60%

What inhibition at 10 µM appears in the records for this compound with B1R of rats (Rattus norvegicus)? Cc1cccc(Cl)c1S(=O)(=O)N1c2ccccc2OCC1COCC(=O)N1CCC(CNC(=O)c2ccncc2)(N2CCN(C)CC2)CC1 (centres unmarked) 102%

# returns recorded inhibition at 10 µM (system: B1R of rats (Rattus norvegicus)) for CN1CCN(C2(CNC(=O)c3ccncc3)CCN(C(=O)CC3CCCCN3S(=O)(=O)c3cccc(C(F)(F)F)c3)CC2)CC1 (centres unmarked) 33%

Identify the measured inhibition at 10 µM of CC(=O)NCC1(N2CCN(C)CC2)CCN(C(=O)CC2CCCCN2S(=O)(=O)c2cccc(C(F)(F)F)c2)CC1 (centres unmarked) for B1R of rats (Rattus norvegicus). 13%

// map COc1cc(C)c(S(=O)(=O)N(C)CCOCC(=O)N2CCC(CNC(C)=O)(N3CCN(c4ccncc4)CC3)CC2)c(C)c1 to recorded inhibition at 10 µM (system: B1R of rats (Rattus norvegicus)) 102%

Enter reported inhibition at 10 µM observed with B1R of rats (Rattus norvegicus) for CN1CCN(C2(CNC(=O)Cc3ccccc3)CCN(C(=O)CC3CCCCN3S(=O)(=O)c3cccc(C(F)(F)F)c3)CC2)CC1 (centres unmarked) 59%

State its inhibition at 10 µM on B1R of rats (Rattus norvegicus): COc1cc(C)c(S(=O)(=O)N(C)CCOCC(=O)N2CCC(CNC(=O)c3cccnc3)(N3CCN(C)CC3)CC2)c(C)c1 101%

Kindly state the measured inhibition at 10 µM obtained for COc1cc(C)c(S(=O)(=O)N2CCCCC2CCOCC(=O)N2CCC(CNC(=O)c3ccncc3)(N3CCN(C)CC3)CC2)c(C)c1 (centres unmarked) with B1R of rats (Rattus norvegicus). 102%

// fetch B1R of rats (Rattus norvegicus) inhibition at 10 µM for COc1cc(C)c(S(=O)(=O)N2CCCCC2COCCC(=O)N2CCC(CNC(=O)c3ccncc3)(N3CCN(C)CC3)CC2)c(C)c1 (centres unmarked) 102%

Request: inhibition at 10 µM, test system B1R of rats (Rattus norvegicus), entry CN1CCN(C2(CNC(=O)c3ccccn3)CCN(C(=O)CC(NS(=O)(=O)c3ccc4ccccc4c3)c3ccccc3)CC2)CC1 (centres unmarked) 83%
